Attribution: patent US20060093575A1

# Tested on: HCT116/R
# test-summary: colorimetric cell growth test, medication incubated 48 hours
# condition-summary: Homo sapiens, HCT-116, 48 h, read-out: IC50 (concentration that reduces cell growth by 50%)
property: pIC50
// scale note: pIC50 = -log10(conc_M); give the bare number

Fill in: pIC50 of CCc1c2c(nc3ccc(OC(=O)N4CCC(N5CCCCC5)CC4)cc13)-c1cc3c(c(=O)n1C2)COC(=O)[C@]3(O)CC [Irinotecan] is ___
5.02

----------
# Tested on: SW620/R
# test-summary: colorimetric cell growth test, medication incubated 48 hours
# condition-summary: read-out: IC50 (concentration that reduces cell growth by 50%); SW620/R, 48 hours, average ± SD, at least three experiments
Catalogue of compounds with associated pIC50
// scale note: pIC50 = -log10(conc_M); give the bare number

compound | target-desc | pIC50
N.N.[Cl][Pt][Cl] [Cisplatin] | SW620/R | 5.05

Next compound, pIC50 to be filled in.
Fill in: pIC50 of O=C1[O][Pt]2([NH][C@@H]3CCCC[C@H]3[NH]2)[O]C1=O [Oxaliplatin] is ___
4.21
